So I've got a bunch of molecules here, and I need their inhibition values.
test: growth suppression of yeast trafficking mutant, preliminary HTS, modulators of trafficking downstream of Golgi apparatus project, 1536-format plate, OD 615 nm (AID 637); details: yeast transport mutant growth, absorbance 615 nm, 18 h; active compounds read high
Calls of active or inactive are those of the source. Rule as the data show it: active = inhibition above about 30%; inactive = the rest.

- Molecule: "CCCn1c(SCC(=O)NC(C)(C)C)nnc1C(C)C"
  Assay Value: "17.6% (inactive)"
- Molecule: "CC1(C)CC(=O)CC(=Nc2ccc(C(=O)O)cc2)C1"
  Assay Value: "-0.16% (inactive)"

# context switch: different molecule, same inhibition
Q: Return reported inhibition. Input molecule: O=C(NC1CCCCC1)C1CCCN1C(=O)NCc1ccccc1 (stereo not drawn)
Result: -3.17% (inactive)

* * *

test: growth suppression of yeast trafficking mutant, preliminary HTS, modulators of trafficking downstream of Golgi apparatus project, 1536-format plate, OD 615 nm (AID 637); conditions: yeast transport mutant growth, absorbance 615 nm, 18 h; active compounds read high
Metric: inhibition (%)
Answers are plain numbers, in %.

- Compound: "Cc1cc(C)cc(-n2nnc(C(=O)NCc3ccc4c(c3)OCO4)c2N)c1"
  Assay Value: 0
- Compound: "CC(O)CN(Cc1cccc(Cl)c1)CC(C)O (centres undefined)"
  Assay Value: 4.13
- Compound: "O=C(NC1CCCCC1)C(c1ccccc1)N(Cc1ccco1)C(=O)Cn1cnc2ccccc21 (centres undefined)"
  Assay Value: -4.92
- Compound: "O=C(CCNNC(=O)c1ccncc1)NCc1ccccc1"
  Assay Value: -2.67

Would you mind giving inhibition for every compound in the list below?
1. N#Cc1nc(-c2cccs2)oc1NCc1ccc(Cl)cc1
2. CCCCOc1ccc(C2C3CN(C(=O)OCC)CC=C3C(C#N)=C(N)C2(C#N)C#N)cc1OC (centres undefined)
3. CCOC(=O)C1=C(CC)Nc2ccccc2N=C1NC(=O)Nc1ccccc1OC
4. CCCS(=O)(=O)C(=C1Nc2ccccc2N1)S(=O)(=O)CCC
5. Cc1ccc(C2=Nc3ccccc3NC(C)(c3ccc(C)o3)C2)o1 (centres undefined)

Result:
0.65
2.13
1.11
4.13
27.1

* * *

assay: HUVEC growth inhibition – cell-based, human, primary screen (AID 575); conditions: HUVEC proliferation, CellTiter-Glo luminescence, 72 h; at 10 µM; active compounds read low;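 also: 100% = median of untreated cell wells with 0.1% DMSO on each plate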
Metric: viability (%)
Give bare numbers, in %.

- Compound: "O=C(Nc1ccc2[nH]c3c(c2c1)CCCC3)c1ccco1"
  viability (%): 73.1
- Compound: "Cc1c(/C(O)=C2/C(=O)C(=O)N(CCN3CCOCC3)C2c2cccs2)cnn1-c1ccccc1 (stereo not given)"
  viability (%): 116

Need viability for each of these compounds.
1. COC(=O)CCC(=O)CN
2. COc1ccccc1CNC(=O)Nc1cccs1
3. COc1ccc(OC)c(Nc2nc(-c3cccs3)cs2)c1
4. Clc1ccccc1-c1nnc2sc(-c3ccccn3)nn12
5. COC(=O)c1ccccc1OCC(=O)NC1CCCCC1
6. Cc1ccc2c(c1)C(N1CCCC1=O)CC(c1ccco1)N2 (stereo not given)
7. CCCCC(=O)Nc1c(O)c2ccccc2[nH]c1=O
8. Cn1c(=O)cc(OCCCC(=O)Nc2ccc3c(c2)OCCO3)c2ccccc21

Result:
92.9
63.8
60.7
93.8
106
74.7
108
85.1

// data source = PubChem BioAssay
